Items are presented alongside their recorded IC50.
- subject of test: 3',5'-cyclic-AMP phosphodiesterase 4A (Homo sapiens)
- Sequence (P27815 whole entry): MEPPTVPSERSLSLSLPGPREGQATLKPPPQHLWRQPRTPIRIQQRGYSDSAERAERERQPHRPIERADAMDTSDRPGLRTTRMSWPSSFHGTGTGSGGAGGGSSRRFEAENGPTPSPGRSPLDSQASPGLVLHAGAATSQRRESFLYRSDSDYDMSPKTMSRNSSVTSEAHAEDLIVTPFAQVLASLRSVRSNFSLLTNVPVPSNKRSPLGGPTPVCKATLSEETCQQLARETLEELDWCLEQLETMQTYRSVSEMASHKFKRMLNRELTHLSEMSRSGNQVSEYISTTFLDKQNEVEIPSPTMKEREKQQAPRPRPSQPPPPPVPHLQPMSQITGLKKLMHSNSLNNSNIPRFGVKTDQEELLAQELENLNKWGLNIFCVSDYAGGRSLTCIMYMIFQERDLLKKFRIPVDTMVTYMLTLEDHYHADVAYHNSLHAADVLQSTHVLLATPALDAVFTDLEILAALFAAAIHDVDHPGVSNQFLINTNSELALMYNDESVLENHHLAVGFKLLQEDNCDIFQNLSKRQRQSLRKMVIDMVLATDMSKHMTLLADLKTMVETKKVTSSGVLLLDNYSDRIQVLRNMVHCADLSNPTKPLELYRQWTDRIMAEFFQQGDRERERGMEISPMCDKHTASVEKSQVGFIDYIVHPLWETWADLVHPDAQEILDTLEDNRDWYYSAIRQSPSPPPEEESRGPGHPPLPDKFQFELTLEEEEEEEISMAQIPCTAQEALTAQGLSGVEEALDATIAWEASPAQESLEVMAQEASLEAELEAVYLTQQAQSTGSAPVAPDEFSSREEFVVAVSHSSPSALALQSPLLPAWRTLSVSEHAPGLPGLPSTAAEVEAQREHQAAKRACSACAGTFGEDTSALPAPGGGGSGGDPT
- experimental details: Evaluated in vitro for its inhibitory activity on unpurified recombinant Phosphodiesterase type 4A (PDE4A).
# value in µM; strip the unit string

>>> df
                                   compound  units  measured_number
0  COc1ccc(C2=NOC(C(=O)NO)C2)cc1OC1CCCC1 (centres undefined)     µM           0.0022
1  COc1ccc(C(=O)NC(C)C(=O)NO)cc1OC1CCCC1 (centres undefined)     µM           0.0507
2        COc1ccc(C(=O)NCC(=O)NO)cc1OC1CCCC1     µM           0.0272

Field: next compound
Returns the measured IC50 for the input compound. Input: COc1ccc(C2=NOC(C)(C(=O)NO)C2)cc1OC1CCCC1 (centres undefined)
0.0098
